Parameter: protein stability index. Scope: all listed entries.
# ASSAY_NOTES: protein stability index of a GFP-peptide fusion (GPS, HEK-293T) (PSI 1-6); higher = more stable;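 also: 24-mer peptide tiles fused after GFP, lentivirally expressed, FACS-sorted into six equal bins by GFP/DsRed ratio, decoded by Illumina sequencing, PSI is the read-weighted mean bin number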
# EXPERIMENTAL_CONTEXT: treatment: MLN4924 1 uM, 8 h; c terminus: a fixed tail appended
MEASURE: protein stability index

>>> endpoint_result("MAAGGSGVGGKRSSKSDADSGFLG [NOP53]")
3.96
>>> endpoint_result("DVIQALDLSVPLMDVGETAMVTAD [FKBP8]")
3.53
>>> endpoint_result("NRVSAIIFSLATEWVISTGHDKCV [WDFY1]")
2.89
>>> endpoint_result("ALNWTDIPVAMEHQPPYIIAVLPR [VPS39]")
2.25
>>> endpoint_result("TVEQGCQILDSLSYMRNENVISEL [FBXO39]")
3.41
>>> endpoint_result("KKRFTRRSHLIGHQRTHSEEETYK [ZNF449]")
4.23
>>> endpoint_result("DPIIDSWEVVTSMGTQRCDAGVCV [KLHL12]")
2.95
>>> endpoint_result("TSDDNLLKNIELFDKLALRFHGRL [KCTD13]")
2.46
>>> endpoint_result("LTIMPYNSAHHCVVEVENFLFVLG [KLHL14]")
3.02
>>> endpoint_result("GHIILNSMHKYQPRLHIVKADENN [TBX5]")
2.95
>>> endpoint_result("SLSAGEKPGFLAPRDLPKHTPLIS [RASAL3]")
3.65
>>> endpoint_result("ELETVDFKDKLEETKGQINNSIKD [SERPINB5]")
5.51
>>> endpoint_result("QQLNDYEQLLDVKLALDMEISAYR [LMNB1]")
2.9
